All figures here come from the supplement of paper PMC10065799.

Can you tell me phosphorylation enrichment for the items I'm about to list?
target: FGFR3 (UniProt P22607); test: phosphorylation enrichment, bacterial display (enrichment ratio); higher = better substrate or ligand; peptides without Tyr show the background;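 note: 11-residue human phosphosite peptides and single-mutation variants displayed on the E. coli surface, counted by deep sequencing, each peptide's frequency after selection divided by its frequency in the unselected input library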;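 note: frequency after pTyr selection over input frequency; kinase dosed for 20-30% of maximal phosphorylation in three min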
Sequence (P22607 whole entry, looked up): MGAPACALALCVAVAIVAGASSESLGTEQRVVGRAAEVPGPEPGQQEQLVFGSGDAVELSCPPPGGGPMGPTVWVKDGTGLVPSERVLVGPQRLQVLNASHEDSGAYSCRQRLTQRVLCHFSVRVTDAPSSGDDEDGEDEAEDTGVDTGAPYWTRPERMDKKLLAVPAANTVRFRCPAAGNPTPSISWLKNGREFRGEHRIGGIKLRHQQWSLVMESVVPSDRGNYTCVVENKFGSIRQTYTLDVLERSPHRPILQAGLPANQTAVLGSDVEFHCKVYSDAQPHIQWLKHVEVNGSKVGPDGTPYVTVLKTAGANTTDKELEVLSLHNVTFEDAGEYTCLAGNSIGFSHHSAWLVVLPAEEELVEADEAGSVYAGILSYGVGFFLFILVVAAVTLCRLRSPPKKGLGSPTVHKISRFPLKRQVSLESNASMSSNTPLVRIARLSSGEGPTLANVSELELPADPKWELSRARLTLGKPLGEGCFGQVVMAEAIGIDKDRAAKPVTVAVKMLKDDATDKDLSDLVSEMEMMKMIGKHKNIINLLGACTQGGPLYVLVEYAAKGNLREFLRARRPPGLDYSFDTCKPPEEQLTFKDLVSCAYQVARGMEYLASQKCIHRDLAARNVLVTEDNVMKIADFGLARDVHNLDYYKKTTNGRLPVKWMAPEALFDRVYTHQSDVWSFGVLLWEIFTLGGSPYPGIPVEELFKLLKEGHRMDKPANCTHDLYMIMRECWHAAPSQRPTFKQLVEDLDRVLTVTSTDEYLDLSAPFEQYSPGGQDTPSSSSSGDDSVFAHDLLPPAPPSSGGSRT
Please give only the number in your answer, with no unit.

Query: I would be grateful if you could share the reported phosphorylation enrichment for KFEDVYVRICL [B3GALNT1_Y269_G271R] .
Reply: 0.926

Query: Name the reported phosphorylation enrichment value associated with the sequence PESCLYKESWL [IQGAP2_Y630]
Reply: 2.14

Query: Which value of phosphorylation enrichment has been reported for NIRKKYFRAIL [CHD7_Y1217_Q1214R_YF] in the records?
Reply: 0.546

Query: Data request, read-out phosphorylation enrichment, for CEETFYTMKMN [MASP2_Y401_V405M]
Reply: 1.11

Query: Reported phosphorylation enrichment for KPGLKYVTFGN [GALNTL5_Y404_YF] : what is it?
Reply: 0.514

Query: I have this sequence here, DKNSSYFADWL [TUBB8_Y340] , and I need its recorded phosphorylation enrichment.
Reply: 1.38

Query: Which phosphorylation enrichment is reported for this sequence? LEFGDCHPLKP [VPS35L_Y32_Y32C]
Reply: 1.52

Query: Which phosphorylation enrichment value is on record for GDFFRSLAEVA [YWHAG_Y133_Y133S_YF] ?
Reply: 0.595

Query: phosphorylation enrichment lookup needed for KRGIDYILWHM [FRMD1_Y225_R228W] , thanks.
Reply: 0.984

Query: phosphorylation enrichment lookup needed for HRNNNYEPNLF [BRCA2_Y57_K53R] , thanks.
Reply: 0.662

Query: Which value of phosphorylation enrichment has been reported for CTTIHYNFMHN [TP53_Y234_C238H_YF] in the records?
Reply: 0.676

Query: Bench note: what phosphorylation enrichment did NVADHYRVYKP [ATP6V0D2_Y271_G272R] show?
Reply: 0.479

Query: # query: phosphorylation enrichment of entry PSAELYSFALP [PDGFRB_Y716_N718Y_YF]
Reply: 5.36

Query: Would you mind telling me what phosphorylation enrichment value was observed for ECKFLYSRKEG [PTPN11_Y263_L261F] ?
Reply: 0.593

Query: Record request: phosphorylation enrichment value, item HSYNSYTYPRL [PAK5_Y316]
Reply: 0.532

Query: Quick one: phosphorylation enrichment of GVLDIYGFEIL [MYO1A_Y382] ?
Reply: 0.787

Query: Look up phosphorylation enrichment for this sequence: QYPDVYAREEV [CRX_Y67]
Reply: 1.66

Query: Would you mind telling me what phosphorylation enrichment value was observed for SHSMRYFDTAV [HLA-C_Y31] ?
Reply: 0.521

Query: Consider the sequence RMGNLYDIDEN [GRIN2A_Y1246_D1251N] and give its measured phosphorylation enrichment.
Reply: 1.22

Query: # query: phosphorylation enrichment of entry RPSELYFSKIS [SMG1_Y2253_G2258S_YF]
Reply: 1.1

Query: Returns the measured phosphorylation enrichment for the input sequence. Input: DLVLQYLRVPL [F9_Y371_A366D]
Reply: 0.757

Query: Give the measured phosphorylation enrichment of AFGGGYGGVLT [KRT19_Y65_YF] .
Reply: 0.446

Query: Any idea what phosphorylation enrichment was measured for GMAHNYRNSSQ [AASS_Y188] ?
Reply: 0.431

Query: Need phosphorylation enrichment, item AIYEGYALPHA [ACTC1_Y171_P166A]
Reply: 0.773

Query: Quick one: phosphorylation enrichment of PQAVRYIFTID [DCX_Y103_G100A_YF] ?
Reply: 0.841

Query: phosphorylation enrichment for HLPAGYIIPLQ [GAA_Y822_R819P] ?
Reply: 0.444

Query: phosphorylation enrichment lookup needed for KVKSIYFHTQG [AR_Y916_P914S] , thanks.
Reply: 0.544
